The reported measurements were obtained from the supplement of paper PMC8617591.

test system: Mycobacterium tuberculosis Erdman (autoluminescent); experiment: GRinf, maximum normalised growth rate inhibition (unitless (-1 to 1)); higher = less effect (negative = killing); conditions: in vitro model: dormancy (butyrate + nitrate, low O2); time point: constant (~7 days, model-specific)
observed-property: GRinf
In your answer, state the number alone without any accompanying words.

molecule	endpoint-value
CC(=O)NC[C@H]1CN(c2ccc(N3CCOCC3)c(F)c2)C(=O)O1 [linezolid] + NC(=O)c1cnccn1 [pyrazinamide]	0.236

Form: molecule = CC[C@@H](CO)NCCN[C@@H](CC)CO [ethambutol] + CO[C@H]1/C=C/O[C@@]2(C)Oc3c(C)c(O)c4c(O)c(c(/C=N/N5CCN(C6CCCC6)CC5)c(O)c4c3C2=O)NC(=O)/C(C)=C\C=C\[C@H](C)[C@H](O)[C@@H](C)[C@@H](O)[C@@H](C)[C@H](OC(C)=O)[C@@H]1C [rifapentine] ; GRinf = 0.366
